System: MCF7 breast
ASSAY_NAME: NCI-60 one-dose screen, 48 h
CONDITION: 10 µM unless noted
Compounds without any hit were thinned out: in the full panel of roughly 83,000, 20% have a hit. Activity calls are given as the source filed them. Rule for the calls: active = growth percent below 10; inactive = the rest.
Please reply with one of these outcomes: t (active), f (inactive)

Please review the entries below; each comes with its answer.
{"columns": ["COMPOUND_STRING", "CLASS_LABEL"],
 "data": [
  ["Cc1ccc2c(c1)/C(=C/C(=O)c1cc3ccccc3oc1=O)C(=O)N2", "f"],
  ["COc1cc2cc(C(=O)N3C[C@@H](CCl)c4c3cc(OC(=O)N(CCC(=O)N3CCN(C)CC3)C3CCCCC3)c3ccccc43)[nH]c2c(OC)c1OC", "t"],
  ["Cc1nn(-c2ccccc2)c2nc(C)n(C(=O)N/N=C/c3cccc([N+](=O)[O-])c3)c(=O)c12", "f"]
]}

# evaluate next
Look up the recorded call for COc1ccc(-c2nc3ccc(-c4nnc(SCc5ccccc5)o4)cc3[nH]2)cc1 in this test.
t

###

System: NCI-H522 lung
ASSAY_NAME: NCI-60 one-dose screen, 48 h
CONDITION: 10 µM unless noted
Compounds without any hit were thinned out: in the full panel of roughly 83,000, 20% have a hit. Activity calls are given as the source filed them. How the source made its calls: active means growth percent below 10; inactive means the rest.
Please reply with one of these outcomes: active, inactive

Look up the recorded call for OCCn1cc(-c2nc3ccc4[nH]ncc4c3c3c2CCCC3)cn1 in this test.
inactive

Look up the recorded call for NS(=O)(=O)c1ccc(Nc2nc(SCC(=O)c3ccc(F)cc3)nc3ccccc23)cc1 in this test.
inactive

Look up the recorded call for N/C(=N\c1nc2ccc([N+](=O)[O-])cc2s1)NC(=O)Nc1ccccc1Cl in this test.
active

###

Test system: SW-620 colon
ASSAY_NAME: NCI-60 one-dose screen, 48 h (100 = growth as untreated, 0 = no growth, -100 = all killed)
CONDITION: 10 µM unless noted
This is part of a sample that, as a whole, favours compounds with a hit. Of some 83,000 tested, about 20% had one in any assay.
Note to self: use MET only for growth readings below 60%; a reading exactly at 60% still gets NOT MET.

Please review the entries below; each comes with its answer.
{"columns": ["MOLECULE", "CLASS_LABEL"],
 "data": [
  ["O=C(NNC(=S)NCCc1ccccc1)c1ccc(OCc2nc3ccc(Cl)cc3[nH]2)cc1", "NOT MET"],
  ["CCCSc1nnc(-c2sc3nc4ccccc4n3c2C)o1", "NOT MET"],
  ["Cn1cc(-c2cc(N)n3nc(-c4c[nH]c5ccccc45)cc3n2)c2cc(Br)ccc21", "MET"]
]}

# evaluate next
Take the molecule COc1c2c(cc3c1C(CCc1ccccc1)N(C)CC3)OCO2 (stereo not given) and say whether its growth is less than 60%.
MET

###

Test system: MDA-MB-231 breast
ASSAY_NAME: NCI-60 one-dose screen, 48 h (100 = growth as untreated, 0 = no growth, -100 = all killed)
CONDITION: 10 µM unless noted
Compounds without any hit were thinned out: in the full panel of roughly 83,000, 20% have a hit.
In this scheme, each record receives a class according to its growth; the ranges are bin 1 (below -10%), bin 2 (-10% to below 50%), bin 3 (50% or more)

Please review the entries below; each comes with its answer.
{"columns": ["COMPOUND", "CLASS_LABEL"],
 "data": [
  ["CCN1C(=O)N(CC)C2NNC(Sc3c(C(=O)O)c4ccccc4n(CC(C)C)c3=O)=NC21 (centres undefined)", "bin 2"],
  ["CCCCN1C(=O)/C(=C\\C(=O)c2cc3ccccc3oc2=O)c2ccccc21", "bin 2"],
  ["CN(C)c1nc(NCCNS(=O)(=O)c2ccc(C3=Nc4c(N)nc(N)nc4NC(c4ccc(Cl)cc4)C3)cc2)nc(N2CCOCC2)n1 (centres undefined)", "bin 2"],
  ["O=C(NN1C(=O)/C(=C/C=C/c2ccc([N+](=O)[O-])o2)SC1=S)c1ccc(O)cc1", "bin 1"],
  ["Cc1cc(C)c2[nH]c(=O)c(C(c3nnnn3Cc3ccc4c(c3)OCO4)N3CCN(C)CC3)cc2c1 (centres undefined)", "bin 3"],
  ["COc1cc(/C=C/C(=O)c2cnn(-c3cc(=O)[nH]c4ccc(Br)cc34)c2C)cc(OC)c1OC", "bin 1"]
]}

The entry to classify is COC(=O)c1c(C(=O)OC)c2c3ccccc3c3ccccc3n2c1C(=O)C(C)(C)C ; which class holds it?
bin 3

The entry to classify is COc1ccc2[nH]c(=O)cc(-n3ncc(C(=O)/C=C/c4cc(OC)c(OC)c(OC)c4)c3C)c2c1 ; which class holds it?
bin 2

The entry to classify is Cc1[nH]nc2ccc3nc(-c4cn[nH]c4C(F)(F)F)c4c(c3c12)CCCC4 ; which class holds it?
bin 1

###

Tested on: PC-3 prostate
ASSAY_NAME: NCI-60 one-dose screen, 48 h (100 = growth as untreated, 0 = no growth, -100 = all killed)
CONDITION: 10 µM unless noted
This is part of a sample that, as a whole, favours compounds with a hit. Of some 83,000 tested, about 20% had one in any assay.
Reported growth values for a set of molecules
Enter your answer as a number in %; do not include the unit.

Before answering, review these 5 worked examples.
{"columns": ["MOLECULE", "growth [%]"],
 "data": [
  ["COc1ccc(C(=O)c2cc(C(C)=O)c3c(C)cc(C)cn23)cc1", 82.9],
  ["COc1ccc(SC2c3cc(OC)ccc3Oc3nc(N)c(C#N)c(N)c32)cc1 (centres undefined)", 42.4],
  ["COc1ccc2[nH]cc(-c3cc(N)n4nc(-c5c[nH]c6ccccc56)cc4n3)c2c1", 10.9],
  ["N#CC1=C(c2ccco2)Nc2c(c(-c3ccccc3)nn2-c2ccccc2)C12C(=O)Nc1ccc(Br)cc12 (centres undefined)", 24.1],
  ["CCCN(CCC)S(=O)(=O)c1ccc(C(=O)O)cc1.CCCN(CCC)S(=O)(=O)c1ccc(C(=O)O)cc1.[Cl][Pt+2][Cl].[NH2-].[NH2-]", 39.7]
]}

// output growth; input O=C1Nc2ccc(F)cc2/C1=C/C(=O)c1cc2ccccc2oc1=O ; system PC-3 prostate
93.7

// output growth; input O=C(CSc1nc2c(c(=O)[nH]1)CCCC2)Nc1ccccc1C(=O)O ; system PC-3 prostate
106

// output growth; input COc1ccc(N=Nc2c(N)nn3c(-c4ccc([N+](=O)[O-])cc4)ccnc23)cc1 ; system PC-3 prostate
101

// output growth; input Cc1ccc(C(=O)C[n+]2cccc3c4ccccc4ccc32)cc1 ; system PC-3 prostate
18.7

###

Test system: M14 melanoma
ASSAY_NAME: NCI-60 one-dose screen, 48 h (100 = growth as untreated, 0 = no growth, -100 = all killed)
CONDITION: 10 µM unless noted
This is part of a sample that, as a whole, favours compounds with a hit. Of some 83,000 tested, about 20% had one in any assay.
Note to self: use fulfilled only for growth readings below 10%; a reading exactly at 10% still gets not fulfilled.

{"columns": ["MOLECULE", "CLASS_LABEL"],
 "data": [
  ["ClC(Cn1ncc2c(Nc3cccc(Br)c3)nc(SCCN3CCOCC3)nc21)c1ccc(Br)cc1 (stereo not given)", "fulfilled"],
  ["COc1ccccc1NC(=O)N/N=C/c1c[nH]c2ccccc12", "not fulfilled"],
  ["CC(C)(C)OC(=O)N1CCC2(CC1)Oc1ccccc1[C@H]1CC(c3ccc(Br)cc3)=NN12", "not fulfilled"],
  ["COC(=O)c1c(C(=O)OC)c2ccc3c4ccccc4ccc3n2c1C(=O)OC", "not fulfilled"]
]}

Take the molecule CC1=C(C(=O)OC(C)C)C(c2ccc(O)cc2)NC(=O)N1 (stereo not given) and say whether its growth is less than 10%.
not fulfilled

###

Tested on: UO-31 renal
ASSAY_NAME: NCI-60 one-dose screen, 48 h (100 = growth as untreated, 0 = no growth, -100 = all killed)
CONDITION: 10 µM unless noted
Experimental: Growth inhibition of the UO-31 human tumor cell line is measured as a screen for anti-cancer activity. Cells are grown in 96 well plates and exposed to the test compound for 48 hours. Compounds are tested at a single concentration, which is 10^-5 M for most compounds. The reported endpoint is percent growth (GI% or GIPRCNT), where numbers from 0 - 100% represent growth inhibition, and numbers from -100% - 0 represent cell death. For example, a value of 40 represents 60% growth inhibition. […]
About 83,000 compounds went through this panel and 20% of them were active in at least one assay; those are over-represented in the sample as a whole.
Reported growth values for a set of compounds
Enter your answer as a number in %; do not include the unit.

Before answering, review these 2 worked examples.
{"columns": ["COMPOUND", "MEASUREMENT_UNITS", "growth"],
 "data": [
  ["N/C(=N\\c1nc2ccccc2s1)NC(=O)Nc1ccccc1F", "%", 34.3],
  ["Cc1cc(C2(c3cc(C)c(OCC(O)CNc4c(C)n(C)n(-c5ccccc5)c4=O)cc3C(C)C)OC(=O)c3ccccc32)c(C(C)C)cc1OCC(O)CNc1c(C)n(C)n(-c2ccccc2)c1=O (stereo not drawn)", "%", 19.1]
]}

Alright, here's another compound for you.
// output growth; input COc1cc(CNC(=O)[C@]23CCC(C)(C)CC2C2=CCC4[C@@]5(C)CCC(OC(C)=O)C(C)(C)C5CC[C@@]4(C)[C@]2(C)CC3)ccc1OCc1cn(-c2ccc(Cl)cc2Cl)nn1 (stereo partly drawn) ; system UO-31 renal
80.2

Data origin, for the record: PubChem BioAssay (NCI)
